Data origin, for the record: patent US20150240295A1

Label y when melting point is at or above 90 °C; otherwise label n.

| molecule | label.class |
| --- | --- |
| COc1ccc(C(OC[C@H]2O[C@@H](n3cnc4c(=O)n(C/C=C(\C)CCC=C(C)C)cnc43)C[C@@H]2O)(c2ccccc2)c2ccc(OC)cc2)cc1 [Compound 4a] | n |

stdin: Could you please find out whether CCCCCCCCCCCCCCCC1(CCCCCCCCCCCCCCC)OC2C(CO)OC(n3ccc(=O)[nH]c3=O)C2O1 (centres unmarked) [Compound 25d] has melting point that meets 90 °C or exceeds it?
stdout: y

stdin: Could you tell me if the measured melting point of COc1ccc(C(OC[C@H]2O[C@@H](n3cnc4c(=O)n(C/C=C(\C)CC/C=C(\C)CCC=C(C)C)cnc43)C[C@@H]2O)(c2ccccc2)c2ccc(OC)cc2)cc1 [Compound 4b] reaches 90 °C or more?
stdout: n
